Measured target: T1, TAT226-His (Homo sapiens, UniProt Q8N2G4)
T1 construct: polyhistidine (C); made in house
T1 sequence (Q8N2G4 21-115): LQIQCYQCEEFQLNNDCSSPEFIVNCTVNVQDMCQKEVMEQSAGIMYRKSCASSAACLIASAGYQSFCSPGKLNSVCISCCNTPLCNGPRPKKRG
Assay name: Binding affinity for recombinant antigen by surface plasmon resonance (BIACORE 3000)
Condition parameters: association rate; immobilized antibody, TAT226-His 0.7 nM to 500 nM, 25° C., one-to-one Langmuir model
Observed property: kon/10^5
Give the figure by itself; no unit, no explanation.

Specify measured kon/10^5 for YWO.49.C9: affinity matured anti-TAT226 antibody derived from YWO.49, reformatted as full-length IgG (antibody, V domains shown) VH: EVQLVESGGGLVQPGGSLRLSCAASGFTITNYGIHWVRQAPGKGLEWVGRIYPDSGATYYADSVKGRFTISADTSKNTAYLQMNSLRAEDTAVYYCARKLWVTLASMDYWGQGTLVTVSS VL: DIQMTQSPSSLSASVGDRVTITCRASQDVSTAVAWYQQKPGKAPKLLIYSASFLYSGVPSRFSGSGSGTDFTLTISSLQPEDFATYYCQKSYNTPPTFGQGTKVEIKR .
1.53
